This collection of values is drawn from ChEMBL document CHEMBL1149278.

The following molecules are listed with their measured pIC50 values.
- Assay Protocol: Displacement of [3H]BTX-B from voltage gated sodium channel in rat cerebral cortex synaptoneurosomes
- Assay type: tissue-based
pIC50: −log10 of the molar value.
Readout Name: pIC50

| Molecule | Modifier | Assay Result |
| --- | --- | --- |
| CCCCCCCCCC1(c2ccccc2)OC(=O)NC1=O (stereo not given) | = | 4.96 |
| CCCCCC(O)(C(=O)NCCCc1ccccc1)c1ccccc1 (stereo not given) | = | 5.60 |
| CCC1(c2ccccc2)NC(=O)N(S(C)(=O)=O)C1=O (stereo not given) | < | 3.30 |
| CCCCCC1(c2ccccc2)OC(=O)NC1=O (stereo not given) | = | 3.95 |
| CCC1(c2ccccc2)NC(=O)N(CN2CCN(C(c3ccccc3)c3ccccc3)CC2)C1=O (stereo not given) | = | 5.48 |
| CCCCCCCC(O)(C(=O)OCC)c1ccccc1 (stereo not given) | = | 4.44 |
| CCCCCCCCCC(N)(C(=O)O)c1ccccc1 (stereo not given) | = | 3.56 |
| CCCC(O)(C(=O)O)c1ccccc1 (stereo not given) | < | 3.30 |
| CC(O)(C(N)=O)c1ccccc1 (stereo not given) [ATROLACTAMIDE] | < | 3.30 |
| CCCC1(c2ccccc2)OC(=O)NC1=O (stereo not given) | = | 3.35 |
| CCCC(O)(C(N)=O)c1ccccc1 (stereo not given) | = | 3.30 |
| CCCCCC(O)(C(N)=O)c1ccccc1 (stereo not given) | = | 3.75 |
| CCCCCCCCCC1(c2ccccc2)NC(=O)N(Cc2ccccc2)C1=O (stereo not given) | = | 5.29 |
| CCCCCCCC1(c2ccccc2)NC(=O)NC1=O (stereo not given) | = | 5.30 |
| CCCCCCCCCC(O)(C(=O)O)c1ccccc1 (stereo not given) | = | 4.08 |
| CCC(OCCCc1ccccc1)(C(=O)NCCCc1ccccc1)c1ccccc1 (stereo not given) | = | 5.37 |
| CCOC(=O)C(O)(CC)c1ccccc1 (stereo not given) | < | 3.70 |
| CCC(O)(C(N)=O)c1ccccc1 (stereo not given) | < | 3.30 |
| CCCCCCCCCC1(c2ccccc2)NC(=O)N(S(C)(=O)=O)C1=O (stereo not given) | = | 4.96 |
| CCCC1(c2ccccc2)NC(=O)NC1=O (stereo not given) | = | 3.79 |
| CCC1(c2ccccc2)NC(=O)NC1=O (stereo not given) | < | 3.70 |
| CCCCCCCC(N)(C(=O)O)c1ccccc1 (stereo not given) | = | 3.52 |
| O=C1NC(c2ccccc2)(c2ccccc2)C(=O)N1CN1CCN(C(c2ccccc2)c2ccccc2)CC1 | = | 5.35 |
| CCCCCC1(c2ccccc2)NC(=O)N(S(C)(=O)=O)C1=O (stereo not given) | = | 3.95 |
| CCCCCC1(c2ccccc2)NC(=O)N(Cc2ccccc2)C1=O (stereo not given) | = | 5.16 |
| CCC(O)(C(=O)O)c1ccccc1 (stereo not given) | < | 3.30 |
| CCCCCC(O)(C(=O)N1CCN(C(c2ccccc2)c2ccccc2)CC1)c1ccccc1 (stereo not given) | = | 5.32 |
| CCC(O)(C(=O)NCCCc1ccccc1)c1ccccc1 (stereo not given) | = | 5.09 |
| CCCCCCCCCC1(c2ccccc2)NC(=O)NC1=O (stereo not given) | = | 5.30 |
| CCCCCC(O)(C(=O)O)c1ccccc1 (stereo not given) | < | 3.30 |
| CCC(O)(C(=O)NCCc1ccccc1)c1ccccc1 (stereo not given) | = | 4.52 |
| CCCCCCCC1(c2ccccc2)OC(=O)NC1=O (stereo not given) | = | 4.52 |
| CCCCCCCC1(c2ccccc2)NC(=O)N(S(C)(=O)=O)C1=O (stereo not given) | = | 4.89 |
| CCCCCCCC(O)(C(=O)O)c1ccccc1 (stereo not given) | < | 3.30 |
| CCC(O)(C(=O)NCCC(c1ccccc1)c1ccccc1)c1ccccc1 (stereo not given) | = | 4.46 |
| CCCCCC(N)(C(=O)O)c1ccccc1 (stereo not given) | < | 3.30 |
| CCC1(c2ccccc2)NC(=O)N(CCN2CCN(C(c3ccccc3)c3ccccc3)CC2)C1=O (stereo not given) | = | 5.96 |
| CC(O)(C(=O)N1CCN(C(c2ccccc2)c2ccccc2)CC1)c1ccccc1 (stereo not given) | = | 5.20 |
| CCC1(c2ccccc2)NC(=O)N(S(=O)(=O)c2ccc(C)cc2)C1=O (stereo not given) | = | 4.29 |
| CCCCCCCCCC(O)(C(N)=O)c1ccccc1 (stereo not given) | = | 5.19 |
| CCCCCC(O)(C(=O)NCCc1ccccc1)c1ccccc1 (stereo not given) | = | 5.30 |
| CCCCCC(O)(C(=O)NCCC(c1ccccc1)c1ccccc1)c1ccccc1 (stereo not given) | = | 5.28 |
| CCCCCC1(c2ccccc2)NC(=O)N(CN2CCN(C(c3ccccc3)c3ccccc3)CC2)C1=O (stereo not given) | = | 5.89 |
| CCCCCC1(c2ccccc2)NC(=O)NC1=O (stereo not given) | = | 4.41 |
| O=C1NC(c2ccccc2)(c2ccccc2)C(=O)N1CCN1CCN(C(c2ccccc2)c2ccccc2)CC1 | = | 6.66 |
| CCCC1(c2ccccc2)NC(=O)N(S(C)(=O)=O)C1=O (stereo not given) | = | 3.30 |
| CCCCCCCC1(c2ccccc2)NC(=O)N(CN2CCN(C(c3ccccc3)c3ccccc3)CC2)C1=O (stereo not given) | = | 5.66 |
| CCCCC1(c2ccccc2)NC(=O)NC1=O (stereo not given) | = | 3.99 |
| CCC(N)(C(=O)O)c1ccccc1 (stereo not given) | < | 3.30 |
| CCCCCCCC(O)(C(N)=O)c1ccccc1 (stereo not given) | = | 5.05 |
